Attribution: patent US11236106B2

molecular target: menin and MLL (menin, Flag tagged; biotinylated MLL1 peptide 1-46aa) (Homo sapiens, UniProt O00255); assay: biochemical; details: cell free IC50 (nM), 1 nM menin, 10 nM biotinylated MLL1 peptide, AlphaLISA
Sequence (O00255 whole entry): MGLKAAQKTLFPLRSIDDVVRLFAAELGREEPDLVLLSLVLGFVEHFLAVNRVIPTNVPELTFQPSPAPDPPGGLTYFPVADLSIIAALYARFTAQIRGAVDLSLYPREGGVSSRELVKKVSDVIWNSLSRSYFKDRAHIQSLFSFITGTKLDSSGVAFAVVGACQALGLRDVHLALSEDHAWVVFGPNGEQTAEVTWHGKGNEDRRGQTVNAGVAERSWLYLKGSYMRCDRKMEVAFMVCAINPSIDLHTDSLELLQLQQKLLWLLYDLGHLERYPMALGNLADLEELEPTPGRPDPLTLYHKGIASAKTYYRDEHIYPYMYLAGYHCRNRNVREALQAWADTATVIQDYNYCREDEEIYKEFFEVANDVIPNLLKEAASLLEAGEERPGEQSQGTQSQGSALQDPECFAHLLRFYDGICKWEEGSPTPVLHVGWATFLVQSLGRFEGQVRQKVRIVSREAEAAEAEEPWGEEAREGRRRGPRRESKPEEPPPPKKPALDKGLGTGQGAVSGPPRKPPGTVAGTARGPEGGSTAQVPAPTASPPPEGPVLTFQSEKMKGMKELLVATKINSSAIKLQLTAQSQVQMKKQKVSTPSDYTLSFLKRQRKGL
Structures can show the parent of a compound that is named as a salt.
quantity: IC50 (nM)
Please state the figure in nM; there is no need to write the unit.

Enquiry: Reported IC50 for COc1cncc(-c2ccc(CN[C@@H]3C[C@H](N(C)c4ncnc5sc(CC(F)(F)F)cc45)[C@@H](O)[C@H]3O)cc2)c1 [Example 20B, Hydrochloride] : what is it?
Return: 16.4

Enquiry: Reported IC50 for COc1cncc(-c2ccc(CN[C@@H]3C[C@H](Nc4ncnc5sc(CC(F)(F)F)cc45)CC(F)(F)C3)cc2)c1 [Example 52, hydrochloride] : what is it?
Return: 612

Enquiry: Reported IC50 for CN(c1ncnc2sc(CC(F)(F)F)cc12)[C@@H]1CC[C@H](NCc2ccc(OCCO)c(F)c2)C1 [Example 31, hydrochloride] : what is it?
Return: 46.4

Enquiry: Reported IC50 for CCN(c1ncnc2sc(CC(F)(F)F)cc12)[C@@H]1CC[C@H](NCc2ccc(-c3cccnc3)cc2)C1 [Example 43, hydrochloride] : what is it?
Return: 76.2

Enquiry: Reported IC50 for CN(c1ncnc2sc(CC(F)(F)F)cc12)[C@@H]1CC[C@H](NCc2ccc(-c3ccc(-c4ccc(Cl)nc4)nc3)cc2)C1 [Example 13] : what is it?
Return: 7.6

Enquiry: Reported IC50 for CC(N[C@H]1CC[C@@H](N(C)c2ncnc3sc(CC(F)(F)F)cc23)C1)c1ccccc1 (mixture of isomers) [Example 33] : what is it?
Return: 2420

Enquiry: Reported IC50 for COc1cncc(-c2ccc(CN[C@H]3C[C@@H](Nc4ncnc5sc(CC(F)(F)F)cc45)C[C@@H](OC)C3)cc2)c1 (single isomer, unassigned) [Example 18B, Hydrochloride] : what is it?
Return: 182

Enquiry: Reported IC50 for COc1cncc(-c2ccc(CN[C@H]3C[C@@H](Nc4ncnc5sc(CC(F)(F)F)cc45)C[C@@H](c4ncco4)C3)cc2)c1 (single isomer, unassigned) [Example 19B, Hydrochloride] : what is it?
Return: 1810

Enquiry: Reported IC50 for COc1cncc(-c2ccc(CN[C@H]3CC[C@@H](N(C)c4ncnc5sc(CC6CC6)cc45)C3)cc2)c1 [Example 9, Hydrochloride] : what is it?
Return: 22.2

Enquiry: Reported IC50 for CN(c1ncnc2sc(CC(F)(F)F)cc12)[C@@H]1CC[C@H](NCc2cncs2)C1 [Example 36, hydrochloride] : what is it?
Return: 636

Enquiry: Reported IC50 for C=CS(=O)(=O)NCCCNC(=O)c1ccc(CN[C@H]2CC[C@@H](N(C)c3ncnc4sc(CC(F)(F)F)cc34)C2)cc1 [Example 34, hydrochloride] : what is it?
Return: 413

Enquiry: Reported IC50 for COc1cncc(-c2ccc(CN[C@@H]3C[C@H](O)C[C@H](Nc4ncnc5sc(CC(F)(F)F)cc45)C3)cc2)c1 (single isomer, unassigned) [Example 15B, Hydrochloride] : what is it?
Return: 403

Enquiry: Reported IC50 for CC(=O)Nc1ccc(CN[C@H]2CCC[C@@H](Nc3ncnc4sc(CC(F)(F)F)cc34)C2)cc1 [Example 29, hydrochloride] : what is it?
Return: 464
